# targetOrSystem: Receptor tyrosine-protein kinase erbB-4 (Homo sapiens)
# Sequence (Q15303 whole entry, the tested form may be a part): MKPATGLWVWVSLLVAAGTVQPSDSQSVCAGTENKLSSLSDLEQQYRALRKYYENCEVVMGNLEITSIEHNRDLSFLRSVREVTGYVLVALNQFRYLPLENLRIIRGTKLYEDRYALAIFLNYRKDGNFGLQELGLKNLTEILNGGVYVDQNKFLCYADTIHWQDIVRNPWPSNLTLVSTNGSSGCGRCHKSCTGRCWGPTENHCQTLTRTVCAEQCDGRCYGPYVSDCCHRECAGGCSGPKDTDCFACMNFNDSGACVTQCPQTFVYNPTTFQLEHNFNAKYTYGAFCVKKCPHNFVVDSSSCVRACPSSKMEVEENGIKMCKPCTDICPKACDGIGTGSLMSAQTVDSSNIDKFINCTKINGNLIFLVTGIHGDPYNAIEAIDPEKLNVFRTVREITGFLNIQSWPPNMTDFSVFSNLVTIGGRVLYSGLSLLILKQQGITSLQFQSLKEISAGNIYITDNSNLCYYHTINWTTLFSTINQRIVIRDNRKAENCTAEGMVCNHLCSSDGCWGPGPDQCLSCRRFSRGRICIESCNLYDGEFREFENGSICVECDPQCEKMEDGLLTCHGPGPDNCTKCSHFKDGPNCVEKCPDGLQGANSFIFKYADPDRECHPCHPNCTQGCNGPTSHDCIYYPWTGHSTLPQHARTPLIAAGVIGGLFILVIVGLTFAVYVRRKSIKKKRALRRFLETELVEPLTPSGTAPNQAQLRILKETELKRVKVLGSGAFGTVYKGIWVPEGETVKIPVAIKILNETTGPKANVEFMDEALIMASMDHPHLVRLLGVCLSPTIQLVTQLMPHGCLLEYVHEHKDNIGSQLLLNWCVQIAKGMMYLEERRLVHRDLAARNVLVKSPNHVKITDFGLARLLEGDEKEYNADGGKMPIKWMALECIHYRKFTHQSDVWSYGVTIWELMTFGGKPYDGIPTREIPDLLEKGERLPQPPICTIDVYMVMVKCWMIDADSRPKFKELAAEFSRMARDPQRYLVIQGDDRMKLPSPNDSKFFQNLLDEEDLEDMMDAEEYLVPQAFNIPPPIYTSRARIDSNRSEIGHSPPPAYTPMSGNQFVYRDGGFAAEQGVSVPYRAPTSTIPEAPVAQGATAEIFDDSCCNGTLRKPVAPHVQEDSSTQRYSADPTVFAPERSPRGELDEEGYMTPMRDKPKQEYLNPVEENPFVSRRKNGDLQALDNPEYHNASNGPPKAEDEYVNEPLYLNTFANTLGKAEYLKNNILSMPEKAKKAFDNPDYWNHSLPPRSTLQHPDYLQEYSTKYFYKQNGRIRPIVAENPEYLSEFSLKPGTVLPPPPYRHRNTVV
# testDescription: Inhibition of recombinant human ERBB4 (706 to 991 residues) using poly(Glu, Tyr) 4:1 as substrate after 40 mins in presence of [gamma-33ATP] by radiometric scintillation counting analysis
pIC50: −log10 of the molar value.
measurementKind: pIC50

Form field pIC50, entry CN(C)c1ccc(C(=O)Nc2cccc(NC(=O)COc3ccc4c(=O)ccoc4c3)c2)cc1 : < 5.00

* * *

Each entry below carries its recorded pIC50.
# targetOrSystem: Rho-associated protein kinase 1 (Homo sapiens, UniProt Q13464)
# Sequence (Q13464 whole entry, the tested form may be a part): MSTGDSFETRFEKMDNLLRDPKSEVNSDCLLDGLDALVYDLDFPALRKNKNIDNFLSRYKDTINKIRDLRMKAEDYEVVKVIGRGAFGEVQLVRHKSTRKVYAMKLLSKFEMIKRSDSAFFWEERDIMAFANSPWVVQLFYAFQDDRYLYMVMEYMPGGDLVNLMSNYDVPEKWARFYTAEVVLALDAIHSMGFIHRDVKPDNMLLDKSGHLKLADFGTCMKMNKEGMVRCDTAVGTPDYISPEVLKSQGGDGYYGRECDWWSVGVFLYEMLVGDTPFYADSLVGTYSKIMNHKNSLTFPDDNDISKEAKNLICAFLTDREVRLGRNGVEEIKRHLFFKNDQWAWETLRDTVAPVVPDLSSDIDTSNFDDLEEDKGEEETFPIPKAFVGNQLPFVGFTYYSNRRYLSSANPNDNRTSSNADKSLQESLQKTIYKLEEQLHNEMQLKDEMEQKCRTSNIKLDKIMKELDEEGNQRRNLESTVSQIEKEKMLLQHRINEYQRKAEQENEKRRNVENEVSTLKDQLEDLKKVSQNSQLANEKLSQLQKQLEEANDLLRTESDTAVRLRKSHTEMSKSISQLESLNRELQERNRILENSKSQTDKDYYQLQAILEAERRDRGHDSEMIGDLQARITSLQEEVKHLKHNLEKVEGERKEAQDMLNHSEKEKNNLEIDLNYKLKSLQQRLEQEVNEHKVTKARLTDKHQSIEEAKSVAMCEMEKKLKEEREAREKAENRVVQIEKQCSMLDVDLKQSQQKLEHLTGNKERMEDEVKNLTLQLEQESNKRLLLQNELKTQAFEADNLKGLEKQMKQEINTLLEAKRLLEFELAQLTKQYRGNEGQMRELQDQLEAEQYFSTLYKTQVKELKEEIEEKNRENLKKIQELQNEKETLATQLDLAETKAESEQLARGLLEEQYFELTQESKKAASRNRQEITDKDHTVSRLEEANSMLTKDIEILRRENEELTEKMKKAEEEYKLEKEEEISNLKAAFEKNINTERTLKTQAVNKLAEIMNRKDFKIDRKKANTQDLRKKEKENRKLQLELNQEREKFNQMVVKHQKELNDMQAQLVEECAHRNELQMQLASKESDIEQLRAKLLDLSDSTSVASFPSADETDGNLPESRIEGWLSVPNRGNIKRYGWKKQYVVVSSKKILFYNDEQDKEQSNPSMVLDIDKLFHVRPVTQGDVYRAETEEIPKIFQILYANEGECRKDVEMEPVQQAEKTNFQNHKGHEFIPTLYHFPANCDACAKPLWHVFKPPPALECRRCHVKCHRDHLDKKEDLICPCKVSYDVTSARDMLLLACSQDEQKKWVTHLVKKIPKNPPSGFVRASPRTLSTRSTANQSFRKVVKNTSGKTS
# testDescription: Inhibition of recombinant human ROCK1 (17 to 535 residues) using […] as substrate incubated for 40 mins in presence of [gamma-33P]ATP and 10 uM ATP by radiometric scintillation counting analysis
Worth noting: pIC50 values are minus log10 of concentrations stated in mol/L.

CC(C)(C)c1ccc(C(=O)Nc2cccc(NC(=O)COc3ccc4c(=O)ccoc4c3)c2)cc1
6.78

Lab note: CN(C)c1ccc(C(=O)Nc2cccc(NC(=O)COc3ccc4c(=O)ccoc4c3)c2)cc1 gave pIC50 of 7.85

So for CN(C)c1ccc(S(=O)(=O)Nc2cccc(NC(=O)COc3ccc4c(=O)ccoc4c3)c2)cc1 , the logged pIC50 turned out to be 6.10

# pIC50 (compound: O=C(COc1ccc2c(=O)ccoc2c1)Nc1cccc(NC(=O)c2ccccc2)c1 ) is 6.92
